assay: clinical; type: in vivo, human; settings: human, in vivo, topical or ocular
experimental_endpoint: half-life

`COc1ccc2[nH]cc(CCNC(C)=O)c2c1` has a reported half-life of 1 to 2 h
